# Tested on: Heterozygous GAT-HRA corn
# Experiment notes: Preemergence herbicide application in greenhouse: fresh shoot weight and visual injury
# Assay type: in vivo
# Applied conditions: Zea mays, pre-emergence, 672 h; preemergence, 200 g/ha; 0% no injury, 100% plant death; mean of four replications; read-out: % Visual Injury
Overview of reported pest or weed control at 200 g/ha across a group of compounds:
Record the result as a number with its unit.

Compound	Observable	Value
COC(=O)c1ccccc1CS(=O)(=O)NC(=O)Nc1nc(OC)cc(OC)n1	pest or weed control at 200 g/ha	10%
CCOc1ccccc1OS(=O)(=O)NC(=O)Nc1nc(OC)cc(OC)n1	pest or weed control at 200 g/ha	25%
COc1cc(OC)nc(NC(=O)NS(=O)(=O)c2ncccc2C(=O)N(C)C)n1	pest or weed control at 200 g/ha	0%

Here is the next item to consider.
Please report the recorded pest or weed control at 200 g/ha for CCc1cnc(C2=NC(C)(C(C)C)C(=O)N2)c(C(=O)O)c1 (stereo not shown) . 20%

* * *

# Test system: parent elite stiff stalk inbred corn
# Experiment notes: Postemergence herbicide application in greenhouse: fresh shoot weight and visual injury
# Assay type: in vivo
# Applied conditions: Zea mays, post-emergence; postemergence, 200 g/ha (glyphosate 3472 g ae/ha, glufosinate ammonium 1870 g/ha); 0% no injury, 100% plant death; mean of four replications; read-out: % Visual Injury
Observable: pest or weed control at 200 g/ha (%)
State the answer as a number, implicitly in %.

CCS(=O)(=O)c1nc2ccccn2c1S(=O)(=O)NC(=O)Nc1nc(OC)cc(OC)n1 97
COc1nc(C)nc(NC(=O)NS(=O)(=O)c2ccccc2CCC(F)(F)F)n1 25
COC(=O)c1ccccc1CS(=O)(=O)NC(=O)Nc1nc(OC)cc(OC)n1 93

Can you share its pest or weed control at 200 g/ha? I mean this compound: Cc1ccn2nc(S(=O)(=O)Nc3c(F)cccc3F)nc2n1 85

* * *

# Tested on: Heterozygous GAT-HRA corn
# Experiment notes: Preemergence herbicide application in greenhouse: fresh shoot weight and visual injury
# Assay type: in vivo
# Applied conditions: preemergence, 200 g/ha; fresh shoots weighed 4 weeks after treatment; mean of four replications; untreated 47.0 g
# key: entry, value: Fresh Weight
The reply should contain only the number, in g.

COc1cc(OC)nc(NC(=O)NS(=O)(=O)c2ncccc2C(=O)N(C)C)n1 50.3
COc1cc(OC)nc(Sc2cccc(Cl)c2C(=O)[O-])n1.[Na+] 48.6
CCCOc1nn(C(=O)NS(=O)(=O)c2ccccc2C(=O)OC)c(=O)n1C 46.7
COC(=O)c1sccc1S(=O)(=O)NC(=O)Nc1nc(C)nc(OC)n1 36.0
CCOc1nc(NC)nc(NC(=O)NS(=O)(=O)c2ccccc2C(=O)OC)n1 50.1
CCOC(=O)c1ccccc1S(=O)(=O)NC(=O)Nc1nc(Cl)cc(OC)n1 39.4

We now examine a further molecule.
Which Fresh Weight is listed for COc1cc(OC)nc(NC(=O)NS(=O)(=O)c2ncccc2OCC(F)(F)F)n1 ? 50.8

* * *

# System: Heterozygous GAT-HRA corn
# Experiment notes: Postemergence herbicide application in greenhouse: fresh shoot weight and visual injury
# Assay type: in vivo
# Applied conditions: Zea mays, post-emergence, […], read-out: % Visual Injury
Measured pest or weed control at 200 g/ha accompanies every entry in the list below.
Entry rule: numbers only, all in %.

Compound	Target desc	pest or weed control at 200 g/ha [%]
CCOc1nc(NC)nc(NC(=O)NS(=O)(=O)c2ccccc2C(=O)OC)n1	Heterozygous GAT-HRA corn	6
COC(=O)c1ccccc1S(=O)(=O)NC(=O)Nc1nc(C)cc(C)n1	Heterozygous GAT-HRA corn	2
COC(=O)c1c(Cl)nn(C)c1S(=O)(=O)NC(=O)Nc1nc(OC)cc(OC)n1	Heterozygous GAT-HRA corn	8
CO/N=C(/C)c1cccc(Oc2nc(OC)cc(OC)n2)c1C(=O)OC	Heterozygous GAT-HRA corn	4
O=C(O)CNCP(=O)(O)O [Glyphosate, N-phosphonomethylglycine]	Heterozygous GAT-HRA corn	10

Form field - read-out: pest or weed control at 200 g/ha; system: Heterozygous GAT-HRA corn; submitted item: COC(=O)c1ccccc1S(=O)(=O)NC(=O)Nc1nc(OC(F)F)cc(OC(F)F)n1 5

Give recorded pest or weed control at 200 g/ha with Heterozygous GAT-HRA corn for the following compound: CP(=O)(O)CCC(N)C(=O)O (stereo not drawn) [Glufosinate ammonium] 1

Request - read-out pest or weed control at 200 g/ha | tested on Heterozygous GAT-HRA corn | compound CC(C)C1(C)N=C(c2nc3ccccc3cc2C(=O)O)NC1=O (stereo not drawn) 2

Heterozygous GAT-HRA corn / pest or weed control at 200 g/ha / CCOC(=O)c1ccccc1S(=O)(=O)NC(=O)Nc1nc(Cl)cc(OC)n1 : value? 15

* * *

# Test system: parent elite stiff stalk inbred corn
# Experiment notes: Postemergence herbicide application in greenhouse: fresh shoot weight and visual injury
# Assay type: in vivo
# Applied conditions: Zea mays, post-emergence; postemergence, 200 g/ha (glyphosate 3472 g ae/ha, glufosinate ammonium 1870 g/ha); 0% no injury, 100% plant death; mean of four replications; read-out: % Visual Injury
Here the recorded pest or weed control at 200 g/ha is given for each entry.
Give the quantity in %, number only.

Compound	Unit tag	Value
COC(=O)c1ccccc1S(=O)(=O)NC(=O)Nc1nc(C)nc(OC)n1	%	100
COC(=O)c1sccc1S(=O)(=O)NC(=O)Nc1nc(C)nc(OC)n1	%	98

I am curious: what pest or weed control at 200 g/ha value has been reported for COCc1cnc(C2=NC(C)(C(C)C)C(=O)N2)c(C(=O)O)c1 (centres unmarked) ? 100

For COc1nc(C)nc(NC(=O)NS(=O)(=O)c2ccccc2Cl)n1 , what is its reported pest or weed control at 200 g/ha? 100

Need pest or weed control at 200 g/ha, item COc1cc(OC)nc(NC(=O)NS(=O)(=O)c2cc(NC=O)ccc2C(=O)N(C)C)n1 28

* * *

The entries below are paired with their reported pest or weed control at 200 g/ha.
# System: Heterozygous GAT-HRA corn
# Experiment notes: Preemergence herbicide application in greenhouse: fresh shoot weight and visual injury
# Assay type: in vivo
# Applied conditions: Zea mays, pre-emergence, 672 h; preemergence, 200 g/ha; 0% no injury, 100% plant death; mean of four replications; read-out: % Visual Injury
Note: unit % is implicit; provide only the numeric part.

Would you please look over these solved cases?
Molecule	pest or weed control at 200 g/ha (%)
COc1cc(OC)nc(NC(=O)NS(=O)(=O)N(C)S(C)(=O)=O)n1	25
COC(=O)c1sccc1S(=O)(=O)NC(=O)Nc1nc(C)nc(OC)n1	3
COc1nc(C)nc(NC(=O)NS(=O)(=O)c2ccccc2OCCCl)n1	12
COC(=O)c1ccccc1S(=O)(=O)NC(=O)N(C)c1nc(C)nc(OC)n1	25
COc1cc(OC)nc(NC(=O)NS(=O)(=O)c2cc(NC=O)ccc2C(=O)N(C)C)n1	7

Which pest or weed control at 200 g/ha is reported for this molecule? COc1nc(C)nc(NC(=O)NS(=O)(=O)c2ccccc2CCC(F)(F)F)n1 9

Look up pest or weed control at 200 g/ha for this molecule: CCS(=O)(=O)c1cccnc1S(=O)(=O)NC(=O)Nc1nc(OC)cc(OC)n1 0

Reported pest or weed control at 200 g/ha for COCc1cnc(C2=NC(C)(C(C)C)C(=O)N2)c(C(=O)O)c1 (stereo not drawn) : what is it? 13

Endpoint output: pest or weed control at 200 g/ha of CC(C)C1(C)N=C(c2ncccc2C(=O)O)NC1=O (stereo not drawn) . Value? 30

* * *

# Test system: Heterozygous GAT-HRA corn
# Experiment notes: Preemergence herbicide application in greenhouse: fresh shoot weight and visual injury
# Format: in vivo
# Applied conditions: preemergence, 200 g/ha; fresh shoots weighed 4 weeks after treatment; mean of four replications; untreated 47.0 g
Observable: Fresh Weight (g)
A number alone suffices; assume g.

Compound	Fresh Weight / g
CCc1cnc(C2=NC(C)(C(C)C)C(=O)N2)c(C(=O)O)c1 (stereo not drawn)	50.0

Looking for the measured Fresh Weight of COC(=O)c1ccc(I)cc1S(=O)(=O)NC(=O)Nc1nc(C)nc(OC)n1 , can you help? 52.5

# lookup: Fresh Weight of CO/N=C(/C)c1cccc(Oc2nc(OC)cc(OC)n2)c1C(=O)OC 39.9

Given the entry COc1nc(C)nc(NC(=O)NS(=O)(=O)c2ccccc2CCC(F)(F)F)n1 , report its measured Fresh Weight. 43.3

Item under review: CC(C)C1(C)N=C(c2nc3ccccc3cc2C(=O)O)NC1=O (stereo not drawn) . Reported Fresh Weight? 45.4

Requested field: Fresh Weight. Item: CCS(=O)(=O)c1nc2ccccn2c1S(=O)(=O)NC(=O)Nc1nc(OC)cc(OC)n1 50.6
